# method_description: 384-well plate pilot, post-Golgi transport modulator project, inhibition of yeast transport mutant growth (AID 636)
# test_settings: absorbance 615 nm, about 18 h, stronger effect = higher value
Hi there, I'd appreciate the recorded inhibition for every entry that follows.
Give the number; % is assumed, so skip it.

Note to self: inhibition recorded for CCOC(=O)c1sc(=NC(=O)c2ccc(OC)c(OC)c2)n(C)c1C was -5.06

Note to self: inhibition recorded for CCOC(=O)c1c(C)oc2ccc(O)c(CN3CCCCC3)c12 was -1.84

Note to self: inhibition recorded for CC1C=CC(C)C(C(=O)O)C1C(=O)O (stereo not drawn) was -0.65

Note to self: inhibition recorded for Cc1ccc(CCC(=O)Nc2ccc(S(N)(=O)=O)cc2)o1 was 1.33

Note to self: inhibition recorded for O=S1(=O)N=C(Nc2nc3c(s2)CCCC3)c2ccccc21 was 0.93

Note to self: inhibition recorded for O=C(Nc1ccc2oc(-c3ccncc3)nc2c1)c1cccs1 was -2.76

Note to self: inhibition recorded for COc1ccc(CCNC(=O)C2CC(=O)N(c3ccccc3)C2)cc1OC (stereo not drawn) was -2.47

Note to self: inhibition recorded for Cc1nn(C)c(C)c1S(=O)(=O)N1CCCC(C(=O)N2CCN(c3ccc(Cl)cc3)CC2)C1 (stereo not drawn) was -2.43

Note to self: inhibition recorded for CCOc1cccc(/C(O)=C2/C(=O)C(=O)N(CCN3CCOCC3)C2c2cccnc2)c1 (stereo not drawn) was -3.68

Note to self: inhibition recorded for O=c1c2cc(N3CCOCC3)ccc2[nH]c(=S)n1CCCN1CCCC1 was -5.41

Note to self: inhibition recorded for O=C(NCC(c1cccnc1)N1CCN(c2ccccc2)CC1)c1ccc2c(c1)OCO2 (stereo not drawn) was -4.46

Note to self: inhibition recorded for Cc1cc(C)n(-c2nc3c(c(=O)n(Cc4ccc(Cl)c(Cl)c4)c(=O)n3C)n2C)n1 was -1.69

Note to self: inhibition recorded for CCC(C)(C(=O)NC1CCCCC1)N(Cc1ccco1)C(=O)c1cnccn1 (stereo not drawn) was -0.78

Note to self: inhibition recorded for COc1cccc(CNc2nc3nc(C)c(Cl)c(C)n3n2)c1 was -4.93

Note to self: inhibition recorded for O=C(COc1ccccc1)Nc1nc2ccccc2[nH]1 was -1.04

Note to self: inhibition recorded for COc1c(Br)cc2c(C)c(C(=O)O)oc2c1Br was 1.82

Note to self: inhibition recorded for Cc1ccc(-c2nc3ccccc3[nH]2)s1 was 0.77

Note to self: inhibition recorded for CC(C)N(C(=O)CSc1nnc(-c2cc3ccccc3cc2O)n1Cc1ccco1)C(C)C was -5.81

Note to self: inhibition recorded for O=C(NCc1ccco1)C(c1ccco1)N(C(=O)Cn1nnc2ccccc21)c1ccc2c(c1)CCC2 (stereo not drawn) was -2.8

Note to self: inhibition recorded for Cn1c(=O)c2c(nc(CN3CCOCC3)n2CC(O)CO)n(C)c1=O (stereo not drawn) was -3.9

Note to self: inhibition recorded for Cc1cc(Cl)ccc1OCCCC(=O)NO was 2.18

Note to self: inhibition recorded for CC(=O)Nc1cc2c(nc1C)nc(C)n2Cc1ccc(Br)cc1 was -4.4

Note to self: inhibition recorded for Cc1cccc2cc(CN(CCN3CCCC3)C(=O)NC3CCCCC3)c(=O)[nH]c12 was -6.08

###

# method_description: growth inhibitors of H69AR lung tumor, primary screen, human, duplicate replicates (AID 580);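 note: 100% = mean luminescence of untreated wells and 0% = no signal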
# test_settings: H69AR lung tumor cells viability, ATP luminescence, 72 h; at 10 µM
Activity calls are given as the source filed them.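 The calls were made as follows: active = viability at or under a set limit in both replicates, limit being median viability minus 3 SD (cut at about 48% in these data, passing the limit was not always enough); inconclusive = at or under the limit in just one replicate; inactive = at or above the limit in both replicates.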
Result category, one only: 1 (active), -1 (inactive)

Given CCOCCCNS(=O)(=O)c1ccc2c(c1)oc(=O)n2CC(=O)OCC , state the outcome it received in this test. -1

Given C=CCn1c(SCc2ccc(C#N)cc2)nnc1-c1cccc(Cl)c1 , state the outcome it received in this test. -1

Given O=c1c(-c2ccc(Br)cc2)coc2c(CN3CCOCC3)c(O)ccc12 , state the outcome it received in this test. -1

Given CCOCCCNC(=O)c1c[nH]c2ccc(S(=O)(=O)Nc3cccc(OC)c3)cc2c1=O , state the outcome it received in this test. -1

Given COc1ccccc1NC(=O)C1=C(C)Nc2nc(CCCO)nn2C1c1cccnc1 (configuration not stated) , state the outcome it received in this test. -1

Given CCN(CC)CCCNC(=O)c1nn(-c2ccc(OC)cc2OC)c(=O)c2ccccc12 , state the outcome it received in this test. -1

Given C=CCSC1=C(C#N)C(c2ccccc2)CC(=O)N1 (configuration not stated) , state the outcome it received in this test. -1

Given O=C(NCCCN1CCN(CCCNC(=O)c2ccc(F)cc2)CC1)c1ccc(F)cc1 , state the outcome it received in this test. -1

Given Nc1cc(-c2ccc(Br)cc2)nn1S(=O)(=O)c1ccccc1 , state the outcome it received in this test. -1

Given COc1ccc(C)cc1S(=O)(=O)Nc1cccnc1 , state the outcome it received in this test. -1

Given Cc1ccc(-n2c(=O)c(C#N)cc3c(=O)n4ccccc4nc32)cc1 , state the outcome it received in this test. -1

Given Cc1c(C(=O)NCc2cccnc2)sc2ncn(CC(=O)N3CCCCC3C)c(=O)c12 (configuration not stated) , state the outcome it received in this test. -1

Given CCOC(=O)[C@H](CCc1ccccc1)N[C@@H](C)C(=O)N1CCC[C@H]1C(=O)O , state the outcome it received in this test. -1

Given C=CCn1c(C)cc(C(=O)CSc2nc3ccccc3o2)c1C , state the outcome it received in this test. -1

Given CCOC(=O)N1CCN(C(=O)CSc2nnc(-c3cc(OC)cc(OC)c3)o2)CC1 , state the outcome it received in this test. -1

Given Cc1ccc(-n2nnnc2SCC(=O)N2CCN(C(=O)c3ccco3)CC2)c(C)c1 , state the outcome it received in this test. -1

Given CC(C)C(NC(=O)c1ccco1)C(=O)NCC(c1ccco1)N1CCCCC1 (configuration not stated) , state the outcome it received in this test. -1

Given CCOC(=O)C1CCN(C(=O)C2CCN(S(=O)(=O)c3cc(Cl)ccc3Cl)CC2)CC1 , state the outcome it received in this test. -1

Given CCOC(=O)c1c(C)oc2ccc(OCC(=O)N(CC)CC)cc12 , state the outcome it received in this test. -1

Given COc1cc(Cl)c(C)cc1NC(=O)COC(=O)c1cnc(C)cn1 , state the outcome it received in this test. -1

Given COc1cccc(-n2nnnc2SCC(=O)NCc2ccco2)c1 , state the outcome it received in this test. -1

Given Cn1nc(C(=O)Nc2cccc(C(F)(F)F)c2)ccc1=O , state the outcome it received in this test. -1

Given Cc1onc(-c2ccccc2)c1C(=O)Nc1ccc(S(=O)(=O)N2CCCCC2)cc1 , state the outcome it received in this test. -1

Given O=C(c1ccc2c(c1)[nH]c(=S)n1c3ccccc3nc21)N1CCN(c2ncccn2)CC1 , state the outcome it received in this test. -1

Given Cc1cc(=O)oc2cc(OCC(=O)OCc3nnc(-c4ccccc4)o3)ccc12 , state the outcome it received in this test. -1

Given CCCC(=O)O[C@]1(C(=O)COC(C)=O)CC[C@H]2[C@@H]3C[C@H](F)C4=CC(=O)C=C[C@]4(C)[C@@]3(F)[C@@H](O)C[C@@]21C , state the outcome it received in this test. -1

Given COc1ccc(N2CCN(Cc3nc4ccccc4c(=O)[nH]3)CC2)cc1 , state the outcome it received in this test. -1

Given O=S(=O)(c1ccc(OCC(O)CN2CCC(Cc3ccccc3)CC2)cc1)N1CCOCC1 (configuration not stated) , state the outcome it received in this test. -1

Given CCN(CC)CCN1C(=O)Cn2c(C)c(C)c3cccc1c32 , state the outcome it received in this test. -1

Given COc1ccc(OC)c(NC(=O)CSc2ncccc2C(=O)O)c1 , state the outcome it received in this test. -1

Given COCc1nnc(NC(=O)CCCOc2ccccc2)s1 , state the outcome it received in this test. -1

Given CC(=O)OCC(=O)[C@@]1(O)[C@H](C)C[C@H]2[C@@H]3CCC4=CC(=O)C=C[C@]4(C)[C@@]3(F)[C@@H](O)C[C@@]21C , state the outcome it received in this test. -1

Given CCCC(=O)N1c2ccccc2NC2=C(C(=O)CCC2)C1c1ccc(F)cc1 (configuration not stated) , state the outcome it received in this test. -1

Given Cc1ccc(O)c(C(CC(=O)N2CCCC2)c2ccccc2)c1 (configuration not stated) , state the outcome it received in this test. -1

Given O=C(Nc1ncc(Br)s1)C1CCCN1S(=O)(=O)c1cccc2cccnc12 (configuration not stated) , state the outcome it received in this test. 1

Given CC(=O)N1C(=O)N(C)C2C1N(C(C)=O)C(=O)N2C (configuration not stated) , state the outcome it received in this test. -1

Given O=C(NCc1ccc(F)cc1)C1CCN(C(=O)NCc2ccccc2)CC1 , state the outcome it received in this test. -1

Given O=C(Nc1ccccc1)N1C(=O)C2(OCCO2)c2ccccc21 , state the outcome it received in this test. -1

Given Cn1c(=O)c2c(nc(CN3CCCCC3)n2CCc2ccccc2)n(C)c1=O , state the outcome it received in this test. -1

Given CCOC(=O)C1CCN(c2c(N3CCCCCC3)c(=O)c2=O)CC1 , state the outcome it received in this test. -1

Given Cc1nn(C)c(C)c1CN(C)C(=O)c1cc2nc(-c3ccco3)cc(C(F)(F)F)n2n1 , state the outcome it received in this test. -1

Given CCOC(=O)c1ccc2[nH]c(C)c(CN3CCN(C)CC3)c(=O)c2c1 , state the outcome it received in this test. -1
